pIC50: −log10 of the molar value.
Listed below are compounds with pIC50 for Type-2 angiotensin II receptor (Homo sapiens), each taken from published literature.
Binary classification by pIC50, with 7 as an inclusive lower bound for Y; all other cases are N.

>  <compound>
COc1ccc2c(c1OCc1ccccc1)C[C@@H](C(=O)O)N(C(=O)[C@@H](OC1(C)CCCC1)c1ccccc1)C2

>  <group_label>
Y

$$$$
>  <compound>
O=C(O)[C@@H]1CN(c2cc(-c3ccccc3)n(-c3ccccc3)n2)CCN1C(=O)C(c1ccccc1)c1ccccc1

>  <group_label>
N

$$$$
>  <compound>
COc1ccc2c(c1OCc1ccccc1)C[C@@H](C(=O)O)N(C(=O)[C@@H](OC1CCCC1)c1ccccc1)C2

>  <group_label>
Y

$$$$

[ask] pIC50 >= 7 for COc1ccc2c(c1OCc1ccccc1)C[C@@H](C(=O)O)N(C(=O)[C@H](c1ccccc1)N(C)C1CCCC1)C2 ?
[reply] N

[ask] pIC50 >= 7 for COc1ccc2c(c1OCc1ccccc1)C[C@@H](C(=O)O)N(C(=O)C(Oc1ccccc1)c1ccccc1)C2 (stereo partly shown) ?
[reply] N

[ask] pIC50 >= 7 for O=C(O)[C@@H]1C[C@H](CCOCc2ccccc2)CN1C(=O)C(c1ccccc1)c1ccccc1 ?
[reply] N
